subjectOfTest: POS-1 TZF domain (Caenorhabditis elegans, UniProt G5EF15 80-180)
Sequence (G5EF15 80-180): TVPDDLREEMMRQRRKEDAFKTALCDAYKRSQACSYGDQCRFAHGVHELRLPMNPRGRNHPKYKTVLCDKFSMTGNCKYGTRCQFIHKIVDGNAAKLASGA
measurementNotes: EMSA
propertyLabel: Kd (nM)
Numbers only, in nM.

// returns reported Kd for input UUUUUCUUAUUCUAGACUAAUAUUGUAAGCU (ssRNA) [SCR+ (glp-1 3'UTR fragment)]
26.9
